For each entry below, report its S:B Binding value.
# assayed_system: T1, CD81 (UniProt P60033 1-236, limits assumed)
# T1 construct: whole, on cells
# T1 sequence (looked up): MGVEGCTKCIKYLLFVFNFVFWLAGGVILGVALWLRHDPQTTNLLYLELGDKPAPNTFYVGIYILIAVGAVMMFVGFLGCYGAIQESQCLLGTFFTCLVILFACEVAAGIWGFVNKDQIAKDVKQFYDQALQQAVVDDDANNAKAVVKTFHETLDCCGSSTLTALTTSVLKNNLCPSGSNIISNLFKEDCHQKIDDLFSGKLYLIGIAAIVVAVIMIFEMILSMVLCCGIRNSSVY
# procedure_text: flow cytometry on cells transfected with the target; signal over mock-transfected cells (background = 1.0)

QUERY: Quick one: S:B Binding of Antibody of light chain E1 (E1chicken) paired with the heavy chain against CD81 (antibody, V domains shown, also called HC-CD81) VH: AVTLDESGGGLQTPGGALSLVCKASGFSIGDYNMGWVRQAPGKGLEWVAGIDAGGGTWRATAVKGRATISRDNGQSTVRLQLNNLRAEDTATYFCAKSTDSSANCCANSIDAWGHGTEVIVSS VL: ALTQPSSVSANPGETVKITCSGSSGSGYYGWYQQKSPGSAPVTLIYDNDKRPSDIPSRFSGSKSGSTGTLTITGVQADDEAVYFCGSADNNYTGIFGAGTTLTVL ?
RESULT: 1.5 S:B

QUERY: Next: Antibody of light chain D3 (D3chicken) paired with the heavy chain against CD81 (antibody, V domains shown, also called HC-CD81) VH: AVTLDESGGGLQTPGGALSLVCKASGFSIGDYNMGWVRQAPGKGLEWVAGIDAGGGTWRATAVKGRATISRDNGQSTVRLQLNNLRAEDTATYFCAKSTDSSANCCANSIDAWGHGTEVIVSS VL: ALTQPSSVSANPGETVKITCSGDDRWYGWYQQKSPGSAPVTLIYSNDKRPSDIPSRFSGSKSGSTGTLTITGVQADDEAVYFCGSRDSSYAGIFGAGTTLTVL
RESULT: 1.2 S:B

QUERY: Try Antibody of common light chain B9 (B9chicken) paired with the heavy chain against CD81 (antibody, V domains shown, also called HC-CD81) VH: AVTLDESGGGLQTPGGALSLVCKASGFSIGDYNMGWVRQAPGKGLEWVAGIDAGGGTWRATAVKGRATISRDNGQSTVRLQLNNLRAEDTATYFCAKSTDSSANCCANSIDAWGHGTEVIVSS VL: ALTQPSSVSANPGETVKITCSGGGSSNYYGWYQQKSPGSAPVTLIYGTNKRPSDIPSRFSGSKSGSTGTLTITGVQADDEAVYFCGSADSSTNAGIFGAGTTLTVL next.
RESULT: 0.6 S:B

QUERY: Another binder to look at: Antibody of common light chain C11 (C11chicken) paired with the heavy chain against CD81 (antibody, V domains shown, also called HC-CD81) VH: AVTLDESGGGLQTPGGALSLVCKASGFSIGDYNMGWVRQAPGKGLEWVAGIDAGGGTWRATAVKGRATISRDNGQSTVRLQLNNLRAEDTATYFCAKSTDSSANCCANSIDAWGHGTEVIVSS VL: ALTQPSSVSANPGETVKITCSGGGSWYGSYYYGWYQQKSPGSAPVTLIYNNDKRPSDIPSRFSGSESGSTATLTITGVQAEDEAVYFCGGYDSTTTDMFGAGTTLTVL
RESULT: 30.9 S:B
